- assay text: glucagon-like peptide 1 release enhancers, primary assay, NCI-H716 cell line, NPC library (AID 1117341)
- run conditions: NCI-H716 cells, at 10 µM, stronger effect = higher value
Residues, ends and D or L forms follow the SMILES beside them.
Hi there, I'd appreciate the recorded GLP1 secretion stimulation for every entry that follows.
Give bare numbers, in %.

Reference set (3 entries):
molecule	GLP1 secretion stimulation, %
CO[C@@]1(NC(=O)Cc2cccs2)C(=O)N2C(C(=O)O)=C(COC(N)=O)CS[C@@H]21	-1.2
O=C(CCC1CCN(Cc2ccccc2)CC1)c1ccc2c(c1)NCCCC2	4.3
CC(C)C[C@@H](N)C(=O)O	0.3

Go through the items and report each one's GLP1 secretion stimulation.
1. COC(=O)[C@H]1[C@H]2C[C@@H]3c4[nH]c5cc(OC)ccc5c4CCN3C[C@H]2C[C@@H](OC(=O)COc2ccc(OC)cc2)[C@@H]1OC
2. CC(=O)N[C@@H](CO)C(=O)N[C@@H](CC(=O)O)C(=O)N[C@@H](CCCCN)C(=O)N1CCC[C@H]1C(=O)O (Ac-SDKP-OH)

-- reply
1. 8.5
2. -1.6

Go through the items and report each one's GLP1 secretion stimulation.
1. Cc1onc(-c2c(Cl)cccc2Cl)c1C(=O)N[C@@H]1C(=O)N2[C@@H]1SC(C)(C)[C@@H]2C(=O)O
2. CC(C)C(=O)OCc1cccc(OC(=O)[C@@H]2N3C(=O)[C@@H](NC(=O)Cc4ccccc4)[C@H]3SC2(C)C)c1
3. CCCNC(C)C(=O)Nc1ccccc1C (stereo not drawn)
4. C#C[C@]1(O)CC[C@H]2[C@@H]3CCC4=CC(=O)CC[C@@H]4[C@H]3CC[C@@]21CC
5. CCOC(=O)Cn1cccc1-c1nc(-c2ccc(OC)cc2)c(-c2ccc(OC)cc2)s1
6. CCCCCC(N)=O
7. O=c1[nH]c(=O)n([C@H]2O[C@H](CO)[C@@H](O)[C@@H]2O)cc1/C=C\Br
8. NCc1ccc(S(N)(=O)=O)cc1

-- reply
1: 0; 2: 3.4; 3: -2.8; 4: 4.1; 5: -0.1; 6: 0.3; 7: 1.5; 8: 1.9

Go through the items and report each one's GLP1 secretion stimulation.
1. Cc1ccc(-c2cc(C(F)(F)F)nn2-c2ccc(S(N)(=O)=O)cc2)cc1
2. COC(=O)[C@H]1[C@H]2C[C@@H]3c4[nH]c5cc(OC)ccc5c4CCN3C[C@H]2C[C@@H](OC(=O)/C=C/c2ccc(O)c(OC)c2)[C@@H]1OC
3. Cc1[nH]cnc1-c1ccc(Cl)cc1
4. C[C@H](CN1CCCC1)C(=O)c1ccc(C(F)(F)F)cc1
5. CCCCNc1ccc(C(=O)OCCN(CC)CC)cc1
6. CO[C@@H]1[C@@H](O[C@@H]2O[C@H](C)[C@@H](O[C@H]3C[C@@](C)(O)[C@@H](O)[C@H](C)O3)[C@H](N(C)C)[C@H]2O)[C@@H](CC=O)C[C@@H](C)[C@@H](O[C@@H]2CC[C@H](N(C)C)[C@@H](C)O2)/C=C/C=C/C[C@@H](C)OC(=O)C[C@H]1OC(C)=O

-- reply
[0.7, 0.1, 0.1, -0.4, 3.7, 9.9]

###

- Tested on: F380Y/beta4
- assay text: modulators of BK channel variants, profiling panel, selectivity assay, cell-based, U2OS BacMam, thallium flux, beta subunits (AID 1259406);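 also: initial slope of Thallos dye fluorescence rise after thallium is added; log ratio against the mean of 0.3% DMSO vehicle wells on the same plate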
- run conditions: at 30 µM
Active and inactive are the calls of the source.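 Rule for the calls: active = thallium flux through the channel raised or lowered by more than 3 SD from vehicle-only wells, actives on both sides; inactive = the rest.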
Answer with one of the outcomes given here: active, inactive

-- ask I'd appreciate the recorded outcome for CN(C)CCc1c[nH]c2ccc(C[C@H]3COC(=O)N3)cc12 from this test.
-- reply inactive

-- ask I'd appreciate the recorded outcome for O=C1NC(=O)C(c2ccccc2)(c2ccccc2)N1 from this test.
-- reply inactive

-- ask I'd appreciate the recorded outcome for CCN(Cc1ccncc1)C(=O)C(CO)c1ccccc1 (configuration not stated) from this test.
-- reply inactive

-- ask I'd appreciate the recorded outcome for C#C[C@]1(O)CC[C@H]2[C@@H]3CCC4=CC(=O)CC[C@@H]4[C@H]3CC[C@@]21CC from this test.
-- reply inactive

-- ask I'd appreciate the recorded outcome for Cn1c(=O)c2[nH]cnc2n(C)c1=O from this test.
-- reply inactive

-- ask I'd appreciate the recorded outcome for CCC(C)(C)C(=O)O[C@H]1C[C@@H](C)C=C2C=C[C@H](C)[C@H](CC[C@@H]3C[C@@H](O)CC(=O)O3)[C@H]21 from this test.
-- reply inactive

###

- assay text: IRF3 reporter activation in THP-1 macrophages, cell-based, PMA-stimulated THP-1, luminescence (AID 1053176)
- run conditions: PMA-differentiated THP-1, IRF3 reporter luminescence; stronger effect = higher value
Active and inactive are the calls of the source. The rule behind the calls is not given here.
property: fraction signal

Go through the items and report each one's fraction signal.
1. N#Cc1ccc(C(=O)c2cnn(-c3ccc(F)cc3)c2N)cc1
2. Cc1c2ccc(N(C)c3ccnc(Nc4cccc(S(N)(=O)=O)c4)n3)cc2nn1C

-- reply
0.0095 (inactive)
0.0015 (inactive)

###

- assay text: differential killing of epithelial or mesenchymal cells, primary screen, imaging, PC-3E GFP, TEM4-18 mCherry, co-culture (AID 1345086);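 also: cells exposed to compound for 72 h before imaging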
- run conditions: imaging cell counts, measured here: epithelial PC-3E GFP cell survival, at 1 µM
property: normalised cell number
Give bare numbers.

Reference set (6 entries):
>>> df
                                   compound  measured_number
0                   O=c1[nH]cc(F)c(=O)[nH]1             0.82
1  CCCNCC(O)COc1ccccc1C(=O)CCc1ccccc1 (configuration not stated)             1.35
2  CN1CCN(CCCN2c3ccccc3Sc3ccc(C(F)(F)F)cc32)CC1                1
3                CCN(CC)CC(=O)Nc1c(C)cccc1C             1.01
4                           NNC(=O)c1ccncc1             1.01
5                 CN(C)C(=O)Oc1ccc[n+](C)c1             1.15

Next, consider the following compound.
Summary for this compound, c1ccc2c(CC3=NCCN3)cccc2c1 : normalised cell number is 1.03

###

Hi there, I'd appreciate the recorded liver cell % of control for every entry that follows.
- assay text: kinase inhibitors against Plasmodium liver-stage infection, cell-based, known kinase inhibitor set, luminescence, hepatoma host viability (AID 624392);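 also: infected cells incubated roughly two days before readout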
- run conditions: Plasmodium liver stage in hepatoma cells, luciferase luminescence, concentration not given here; measured here: host liver cell viability

In [3]: df
Out[3]:
                               given_smiles                 property  result
0  NS(=O)(=O)c1ccc(N=Nc2c(O)[nH]c3ccc(C(=O)NCCCn4ccnc4)cc23)cc1  liver cell % of control     94%
1  CN(c1ccc(NC(=O)Nc2ccc(OC(F)(F)F)cc2)cc1)c1ccnc(Nc2cccc(S(N)(=O)=O)c2)n1  liver cell % of control   58.3%
2  Cc1cc(O)cc(C)c1/C=C/c1cncc(C(=O)OC(C)(C)C)c1  liver cell % of control   60.8%
3  COc1ccc(F)cc1C(=O)c1cnc(NC2CCN(S(C)(=O)=O)CC2)nc1N  liver cell % of control   97.2%

Next, consider the following compound.
Summary for this compound, Cn1cc(C2=C(n3ccc4ccccc43)C(=O)NC2=O)c2ccccc21 : liver cell % of control is 130%

###

- assay text: SU-DIPG-XXV glioma cell viability, MIPE5.0 library, qHTS (AID 1347068);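 as to IC50: cells exposed to compound for 48 hours before viability readout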
Results filed as inconclusive are left out. Active and inactive are the calls of the source. The limit is not given here; nearly all actives have IC50 up to about 30 µM.
property: IC50

Reference set (5 entries):
>>> print(df.to_string())
                                   compound    result
0  O=C1CCC(N2C(=O)c3ccccc3C2=O)C(=O)N1 (stereo not given)  inactive
1  CC(=O)OCC(=O)[C@@]12OC(C)(C)O[C@@H]1C[C@H]1[C@@H]3C[C@H](F)C4=CC(=O)C=C[C@]4(C)[C@@]3(F)[C@@H](O)C[C@@]12C  inactive
2  CC(=O)OCC(=O)[C@@]1(O)CC[C@H]2[C@@H]3CCC4=CC(=O)C=C[C@]4(C)[C@H]3[C@@H](O)C[C@@]21C  inactive
3  CC1=C(/C=C/C(C)=C/C=C/C(C)=C/C(=O)O)C(C)(C)CCC1  inactive
4                            O=C(O)c1cccnc1  inactive

Go through the items and report each one's IC50.
1. CC(=O)CC(c1ccccc1)c1c(O)c2ccccc2oc1=O (stereo not given)
2. CCN(CC)CCCC(C)Nc1ccnc2cc(Cl)ccc12 (stereo not given)

-- reply
["inactive", "inactive"]

Go through the items and report each one's IC50.
1. Nc1c2c(nc3ccccc13)CCCC2
2. CCCCc1oc2ccccc2c1C(=O)c1cc(I)c(OCCN(CC)CC)c(I)c1
3. Nc1nc2ccc(OC(F)(F)F)cc2s1

-- reply
["inactive", "23.5 µM (active)", "20.9 µM (active)"]
